Biological target: T1, human PVRIG-his (AcroBiosystems, Cat NO. PVG-H52H4) (human, UniProt Q6DKI7 41-171, limits assumed)
T1 construct: also called human PVRIG protein
T1 sequence (looked up): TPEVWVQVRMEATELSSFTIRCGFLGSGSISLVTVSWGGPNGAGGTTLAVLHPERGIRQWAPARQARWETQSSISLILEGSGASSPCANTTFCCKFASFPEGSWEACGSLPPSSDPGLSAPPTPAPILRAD
Test: ELISA, antigen coated
Item-by-item account of pEC50
pEC50 here is simply -log10 of the concentration when that concentration is written in mol/L.

Sample answers from the record:
binder	pEC50
PVRIG-A50-H1b (Fc fusion, humanized variant of PVRIG-A50; also called A50.VH1b; not shown: constant part not restated for the humanized forms; parents are VHH-hinge-CH2-CH3 of human IgG1; detected by anti-human) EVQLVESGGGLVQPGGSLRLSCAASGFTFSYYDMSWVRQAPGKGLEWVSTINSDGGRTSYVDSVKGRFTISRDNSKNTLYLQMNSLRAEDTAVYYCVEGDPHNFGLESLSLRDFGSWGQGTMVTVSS	10.09
PVRIG-A118-H6 (Fc fusion, humanized variant of PVRIG-A118; also called A118.VH6; not shown: constant part not restated for the humanized forms; parents are VHH-hinge-CH2-CH3 of human IgG1; detected by anti-human) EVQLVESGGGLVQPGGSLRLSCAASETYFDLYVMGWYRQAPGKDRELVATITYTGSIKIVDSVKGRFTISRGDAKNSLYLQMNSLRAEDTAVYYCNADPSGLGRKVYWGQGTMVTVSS	10.26
PVRIG-A50-H1e (Fc fusion, humanized variant of PVRIG-A50; also called VH1e; not shown: constant part not restated for the humanized forms; parents are VHH-hinge-CH2-CH3 of human IgG1; detected by anti-human) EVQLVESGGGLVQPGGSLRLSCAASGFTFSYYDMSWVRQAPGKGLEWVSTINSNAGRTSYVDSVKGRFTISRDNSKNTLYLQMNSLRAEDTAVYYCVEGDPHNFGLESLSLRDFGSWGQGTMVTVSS	10.10
PVRIG-A50-H1d (Fc fusion, humanized variant of PVRIG-A50; also called A50.VH1d; not shown: constant part not restated for the humanized forms; parents are VHH-hinge-CH2-CH3 of human IgG1; detected by anti-human) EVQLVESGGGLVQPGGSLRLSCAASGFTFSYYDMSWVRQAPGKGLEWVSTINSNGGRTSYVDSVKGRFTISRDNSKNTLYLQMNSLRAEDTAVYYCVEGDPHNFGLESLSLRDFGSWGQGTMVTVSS	10.11
PVRIG-A118-H7 (Fc fusion, humanized variant of PVRIG-A118; also called A118.VH7; not shown: constant part not restated for the humanized forms; parents are VHH-hinge-CH2-CH3 of human IgG1; detected by anti-human) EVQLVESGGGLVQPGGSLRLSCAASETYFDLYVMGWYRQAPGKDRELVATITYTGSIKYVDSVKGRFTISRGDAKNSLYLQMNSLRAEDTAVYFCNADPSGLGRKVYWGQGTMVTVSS	10.30

Form: binder = PVRIG-A105-H5 (Fc fusion, humanized variant of PVRIG-A105; also called A105.VH5; not shown: constant part not restated for the humanized forms; parents are VHH-hinge-CH2-CH3 of human IgG1; detected by anti-human) EVQLVESGGGLVQPGGSLRLSCAASGRTFDRHTMTWFRQAPGKEREFVATASRIPGDTYYVDSVKGRFTISRDNAKNSLYLQMNSLRAEDTAVYYCAATSAYCSEVDCYEKGSWYDNWGQGIQVTVSS ; pEC50 = 10.17

Form: binder = PVRIG-A118-H4 (Fc fusion, humanized variant of PVRIG-A118; also called A118.VH4; not shown: constant part not restated for the humanized forms; parents are VHH-hinge-CH2-CH3 of human IgG1; detected by anti-human) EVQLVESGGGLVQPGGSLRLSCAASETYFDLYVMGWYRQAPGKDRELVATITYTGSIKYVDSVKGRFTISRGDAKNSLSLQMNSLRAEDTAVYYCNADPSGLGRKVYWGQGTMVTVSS ; pEC50 = 10.28

Form: binder = PVRIG-A118-H1 (Fc fusion, humanized variant of PVRIG-A118; also called A118.VH1; not shown: constant part not restated for the humanized forms; parents are VHH-hinge-CH2-CH3 of human IgG1; detected by anti-human) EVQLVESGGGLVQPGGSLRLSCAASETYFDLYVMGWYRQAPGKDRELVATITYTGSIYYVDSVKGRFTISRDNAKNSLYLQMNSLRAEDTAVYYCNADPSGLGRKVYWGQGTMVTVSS ; pEC50 = 10.34
